B1: library; a variant is named by its letters at N, in order (parent)
chain: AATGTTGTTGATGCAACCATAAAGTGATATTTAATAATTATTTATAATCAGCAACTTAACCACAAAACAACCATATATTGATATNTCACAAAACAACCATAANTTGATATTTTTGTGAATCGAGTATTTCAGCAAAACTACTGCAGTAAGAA

Variants of: B1
Assay: relative integration efficiency (T-RL orientation) vs wild-type transposon end (log2 (normalized fold change)); transposon end mutated: left end; higher = more efficient transposition
Details: with VchCAST RNA-guided transposition machinery (E. coli BL21(DE3) host, lacZ target)
So basically, the class depends on measured relative integration efficiency (log2), and the ranges are Low (below -0.5), Medium (-0.5 to below -0.1), High (-0.1 or more)

Variant string | Category label
CG T112G T113G | Medium
CG A36C A37C T38G T39G | Medium
CG C17G C71G C97G | Low
CG C68G A69T | Low
CG T35C | High
CG G117T A118C A119C T120G C121A G122T A123C G124T T125G | High
CG A23T G24C | High
CA G24A T30A T104G T113A | Medium
CA A16C G24T T30A T104G T113A | Medium
CG A75T | Medium
CG T112A | Medium
CG T116A | High
CG T105A G106C A107T T108A | Low
CG C89T | Medium
CG A88C C89A A90C A91C | Medium
TG A23G G24T A33T T76A T78A T84A C87A | High
CG C49G A50T C52A A53T C55A T56C T57A A59T C61A A62C C63A A64G | Low
CG A21T A22T A23T G24C | Low
CG A50C | Medium
CG C18G C72G C98G | Low
CG G80T | Medium
CG G26T G80T G106T | Low
CG G10C A11T | High
CG A16C G24T T32G A33C | Medium
CG A23C G24T T25G G26T | Low
CG T12G G13T C14A A15C | Medium
TA G24A T30A T76A A77G C87T A96C T112G T113C | High
CG T48A C49G A50T G51C | Low
CG T20A A21T A22T A23T | Low
CG T114G G115T T116G G117T A118C A119C T120G C121A G122T A123C G124T T125G | High
CG C71A | Medium
CG G13A T30A T31C T32A A77C T86G | Low
CG C61G A62T C63G A64T | High
CG A92C A93C C94A A95C | Low
TA A16C G24T T32G A33C A70C T76A T86G A102T T111C T113C | Low
CG C52T | High
TA A70C T76A T84A C87A A96C T110A T113A | High
CG T12A G13A T31C A77C T86G | Medium
CG T105A | Low
TA A16C G24T T32G A33C T76A T78G C87A T104G T113A | Low
TA A16C G24T T30A A70C T76A T84A C87A A102T T111C T113C | Medium
CG T32G A33C | High
CG A44T T45A A46T A47T | High
TA T76A T78A T84A C87A A96C T112G T113C | High
